assayed.system: USP9X (Homo sapiens (Human), UniProt Q93008)
Sequence (Q93008 whole entry): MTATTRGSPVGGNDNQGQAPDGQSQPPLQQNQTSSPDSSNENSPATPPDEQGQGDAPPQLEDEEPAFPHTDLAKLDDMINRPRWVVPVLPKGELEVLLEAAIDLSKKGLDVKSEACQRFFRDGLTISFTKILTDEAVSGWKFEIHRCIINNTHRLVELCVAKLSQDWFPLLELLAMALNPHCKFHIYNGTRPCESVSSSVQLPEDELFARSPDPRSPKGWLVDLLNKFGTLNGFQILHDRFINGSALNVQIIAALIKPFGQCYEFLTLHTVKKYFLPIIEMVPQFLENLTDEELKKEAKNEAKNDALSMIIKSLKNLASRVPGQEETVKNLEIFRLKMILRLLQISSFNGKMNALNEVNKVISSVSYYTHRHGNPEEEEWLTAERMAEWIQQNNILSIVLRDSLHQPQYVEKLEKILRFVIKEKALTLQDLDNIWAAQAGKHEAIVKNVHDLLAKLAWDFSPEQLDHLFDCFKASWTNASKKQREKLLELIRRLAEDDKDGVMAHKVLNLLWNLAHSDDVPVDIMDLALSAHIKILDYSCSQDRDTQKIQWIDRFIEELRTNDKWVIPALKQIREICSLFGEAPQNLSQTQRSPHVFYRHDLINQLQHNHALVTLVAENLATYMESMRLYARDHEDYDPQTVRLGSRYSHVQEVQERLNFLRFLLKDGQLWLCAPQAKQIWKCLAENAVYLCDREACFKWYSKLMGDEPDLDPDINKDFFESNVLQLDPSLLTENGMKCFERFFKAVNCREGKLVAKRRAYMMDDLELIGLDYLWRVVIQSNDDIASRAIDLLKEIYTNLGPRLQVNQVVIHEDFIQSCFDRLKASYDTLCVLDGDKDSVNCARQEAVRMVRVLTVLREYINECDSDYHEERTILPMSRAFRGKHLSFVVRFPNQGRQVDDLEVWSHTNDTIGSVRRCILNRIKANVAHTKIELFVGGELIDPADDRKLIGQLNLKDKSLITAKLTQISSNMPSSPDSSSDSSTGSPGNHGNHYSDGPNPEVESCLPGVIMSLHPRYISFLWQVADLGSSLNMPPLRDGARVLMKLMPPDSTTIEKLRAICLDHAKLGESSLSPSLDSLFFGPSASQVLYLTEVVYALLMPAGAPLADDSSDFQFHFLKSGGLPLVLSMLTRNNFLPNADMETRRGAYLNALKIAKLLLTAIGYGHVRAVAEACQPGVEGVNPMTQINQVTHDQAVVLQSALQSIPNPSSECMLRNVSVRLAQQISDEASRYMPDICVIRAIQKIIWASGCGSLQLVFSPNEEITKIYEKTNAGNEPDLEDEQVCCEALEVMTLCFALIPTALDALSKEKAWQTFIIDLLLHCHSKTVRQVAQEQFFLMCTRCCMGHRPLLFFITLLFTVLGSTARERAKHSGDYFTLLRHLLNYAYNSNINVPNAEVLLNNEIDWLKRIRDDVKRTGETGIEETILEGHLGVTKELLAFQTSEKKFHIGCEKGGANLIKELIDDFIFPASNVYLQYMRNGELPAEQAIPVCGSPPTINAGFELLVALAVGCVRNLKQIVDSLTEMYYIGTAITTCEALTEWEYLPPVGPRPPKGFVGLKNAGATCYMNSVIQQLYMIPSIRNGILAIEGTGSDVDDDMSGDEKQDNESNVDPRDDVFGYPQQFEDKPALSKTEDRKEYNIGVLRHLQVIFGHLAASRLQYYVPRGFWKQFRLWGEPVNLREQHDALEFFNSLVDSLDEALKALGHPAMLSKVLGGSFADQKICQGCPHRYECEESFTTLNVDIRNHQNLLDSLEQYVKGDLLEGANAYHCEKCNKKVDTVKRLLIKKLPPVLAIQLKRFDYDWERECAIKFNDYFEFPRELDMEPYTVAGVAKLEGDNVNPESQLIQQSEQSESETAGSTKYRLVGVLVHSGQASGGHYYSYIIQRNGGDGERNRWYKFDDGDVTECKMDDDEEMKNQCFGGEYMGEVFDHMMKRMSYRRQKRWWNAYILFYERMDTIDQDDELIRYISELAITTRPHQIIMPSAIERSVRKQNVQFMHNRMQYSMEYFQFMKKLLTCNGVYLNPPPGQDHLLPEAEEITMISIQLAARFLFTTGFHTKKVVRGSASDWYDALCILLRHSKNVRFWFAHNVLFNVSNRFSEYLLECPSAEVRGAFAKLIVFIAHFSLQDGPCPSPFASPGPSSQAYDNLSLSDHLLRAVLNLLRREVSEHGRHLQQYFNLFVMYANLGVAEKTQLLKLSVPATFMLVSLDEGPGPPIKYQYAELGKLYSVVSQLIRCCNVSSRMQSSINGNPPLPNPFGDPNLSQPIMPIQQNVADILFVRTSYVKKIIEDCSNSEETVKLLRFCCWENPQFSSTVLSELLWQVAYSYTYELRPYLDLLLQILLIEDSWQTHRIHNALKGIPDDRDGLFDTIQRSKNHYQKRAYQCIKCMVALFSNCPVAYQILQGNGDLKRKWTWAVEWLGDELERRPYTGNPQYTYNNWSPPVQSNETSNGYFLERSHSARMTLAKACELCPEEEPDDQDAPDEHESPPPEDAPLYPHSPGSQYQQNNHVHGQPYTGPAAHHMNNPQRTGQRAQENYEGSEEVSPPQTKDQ
test.method.notes: USP9X enzyme activity assay, ubiquitin-rhodamine110 substrate
settings: read-out: IC50 for the inhibition of USP9X activity; ubiquitin-rhodamine110 substrate
observable: pIC50
pIC50 (log units): -log10 of the concentration in mol/L.

CN1CCOc2ccc(c(F)c2)C(=O)NCc2ccc(F)c(c2)C(=O)N[C@@H](CC(C)(C)C)C(=O)Nc2ccc(cc2)CCN(C)C(=O)CC(C)(C)CC1=O [Compound 11A]    7.32

// query Please report the measured pIC50 for `CC(C)(C)C[C@@H]1NC(=O)c2cccc(c2)CNC(=O)c2ccc(cc2)OCCNC(=O)CC(C)(C)CC(=O)N[C@H](C(=O)O)Cc2ccc(cc2)NC1=O`
// result 6.41

// query Please report the measured pIC50 for `CN1CCOc2ccc(cc2)C(=O)NCc2cccc(c2)C(=O)N[C@@H](CC(C)(C)C)C(=O)Nc2ccc(cc2)CCN(C)C(=O)CC(C)(C)CC1=O`
// result 7.52

// query Please report the measured pIC50 for `CN1CCOc2ccc(cc2)C(=O)NCc2ccc(F)c(c2)C(=O)N[C@@H](CC(C)(C)C)C(=O)Nc2ccc(cc2)CCN(C)C(=O)CC(C)(C)CC1=O`
// result 7.96

----------
assayed.system: USP9X (Homo sapiens (Human))
test.method.notes: USP9X enzyme activity assay, ubiquitin-rhodamine110 substrate
settings: read-out: USP9X IC50 nM; Table 2
observable: IC50 (nM)
Please state the figure in nM; there is no need to write the unit.

Some compounds with recorded IC50:
CN1CCOc2ccc(c(F)c2)C(=O)NCc2ccc(F)c(c2)C(=O)N[C@@H](CC(C)(C)C)C(=O)Nc2ccc(cc2)CCN(C)C(=O)CC(C)(C)CC1=O [Compound 11A]    48
CC(C)(C)C[C@@H]1NC(=O)c2cccc(c2)CNC(=O)c2ccc(cc2)OCCNC(=O)CC(C)(C)CC(=O)N[C@H](C(=O)O)Cc2ccc(cc2)NC1=O    390
CN1CCOc2ccc(cc2)C(=O)NCc2ccc(F)c(c2)C(=O)N[C@@H](CC(C)(C)C)C(=O)Nc2ccc(cc2)CCN(C)C(=O)CC(C)(C)CC1=O    11

// moving on: another record for IC50
// query Please report the measured IC50 for `CN1CCOc2ccc(cc2)C(=O)NCc2cccc(c2)C(=O)N[C@@H](CC(C)(C)C)C(=O)Nc2ccc(cc2)CCN(C)C(=O)CC(C)(C)CC1=O`
// result 30

----------
assayed.system: USP9X (Homo sapiens (Human), UniProt Q93008)
test.method.notes: Biacore T200 surface plasmon resonance binding to immobilized USP9X
settings: 25° C.; read-out: equilibrium dissociation constant KD from ratio of dissociation to association rate constant
observable: pKd
pKd (log units): -log10 of the concentration in mol/L.

// query Please report the measured pKd for `CC(C)(C)C[C@@H]1NC(=O)c2cccc(c2)CNC(=O)c2ccc(cc2)OCCNC(=O)CC(C)(C)CC(=O)N[C@H](C(=O)O)Cc2ccc(cc2)NC1=O`
// result 6.32

----------
Tested on: DU 145
test.method.notes: ONCOLINES Profiler proliferation
Assay type: cell-based
settings: DU 145, prostate carcinoma
Each entry below lists one item and its recorded IC50 value.

CCC[C@H](NC(=O)/C(C#N)=C/c1cccc(Br)n1)c1ccccc1 [WP1130, reference compound]    9.6 µM

// moving on: another record for IC50
// query Please report the measured IC50 for `CN1CCOc2ccc(cc2)C(=O)NCc2ccc(F)c(c2)C(=O)N[C@@H](CC(C)(C)C)C(=O)Nc2ccc(cc2)CCN(C)C(=O)CC(C)(C)CC1=O`
// result 2 µM

----------
Tested on: U937 cells
test.method.notes: WST-1 cell viability assay
Type: cell-based
settings: Homo sapiens, U-937; U937 cells, with 0.5 μM Compound 7A; read-out: IC50 of ABT737 with co-treatment
observable: IC50 (nM)
Please state the figure in nM; there is no need to write the unit.

// query Please report the measured IC50 for CN(C)CC[C@H](CSc1ccccc1)Nc1ccc(S(=O)(=O)NC(=O)c2ccc(N3CCN(Cc4ccccc4-c4ccc(Cl)cc4)CC3)cc2)cc1[N+](=O)[O-] [ABT737, reference compound]
// result 60

----------
Each entry below lists one item and its recorded IC50 value.
System: RKO
test.method.notes: ONCOLINES Profiler proliferation
Type: cell-based
settings: colon carcinoma
Please state the figure in µM; there is no need to write the unit.

// query Please report the measured IC50 for CCC[C@H](NC(=O)/C(C#N)=C/c1cccc(Br)n1)c1ccccc1 [WP1130, reference compound]
// result 4.3

// query Please report the measured IC50 for CN1CCOc2ccc(cc2)C(=O)NCc2ccc(F)c(c2)C(=O)N[C@@H](CC(C)(C)C)C(=O)Nc2ccc(cc2)CCN(C)C(=O)CC(C)(C)CC1=O [Compound 7A]
// result 0.683

----------
Tested on: Hs 57BT
test.method.notes: ONCOLINES Profiler proliferation
Format: cell-based
settings: Hs 57BT (Hs578T), breast carcinoma
Each entry below lists one item and its recorded IC50 value.
Please state the figure in µM; there is no need to write the unit.

CCC[C@H](NC(=O)/C(C#N)=C/c1cccc(Br)n1)c1ccccc1 [WP1130, reference compound]    6.3

// moving on: another record for IC50
// query Please report the measured IC50 for `CN1CCOc2ccc(cc2)C(=O)NCc2ccc(F)c(c2)C(=O)N[C@@H](CC(C)(C)C)C(=O)Nc2ccc(cc2)CCN(C)C(=O)CC(C)(C)CC1=O`
// result 1.4

----------
assayed.system: USP9X (Homo sapiens (Human))
test.method.notes: USP9X enzyme activity assay, ubiquitin-rhodamine110 substrate
settings: read-out: USP9X IC50/UM; Table 8
Each entry below lists one item and its recorded pIC50 value.
pIC50 (log units): -log10 of the concentration in mol/L.

CC(C)(C)C[C@H](NC(=O)c1cc(CNC(=O)c2ccccc2)ccc1F)C(=O)Nc1ccc(CCC(=O)O)cc1    5.31
COc1ccc(C(=O)NCc2cccc(C(=O)N[C@@H](CC(C)(C)C)C(=O)Nc3ccc(CCN(C)C)cc3)c2)cc1    6.62
CC(=O)NCCc1ccc(NC(=O)[C@H](CC(C)(C)C)NC(=O)c2cccc(CNC(=O)c3ccc(OCCO)cc3)c2)cc1    6.19
Cc1ccc(NC(=O)[C@H](CC(C)(C)C)NC(=O)c2cccc(CNC(=O)c3ccc(OCCN(C)C)cc3)c2)cc1    6.38
CN(C)CCOc1ccc(C(=O)NCc2cccc(C(=O)N[C@@H](CC(C)(C)C)C(=O)NCCN3CCCC3)c2)cc1    5.10

// query Param request: pIC50 | system USP9X (Homo sapiens (Human)) | item `CN(C)CCOc1ccc(C(=O)NCc2cccc(C(=O)N[C@@H](CC(C)(C)C)C(=O)Nc3ccc(CN4CCCC4)cc3)c2)cc1`
// result 7.26

// query Param request: pIC50 | system USP9X (Homo sapiens (Human)) | item `CNCCOc1ccc(C(=O)NCc2cccc(C(=O)N[C@@H](CC(C)(C)C)C(=O)Nc3ccc(CCC(=O)O)cc3)c2)cc1`
// result 6.55

----------
System: RKO
test.method.notes: ONCOLINES Profiler proliferation
Format: cell-based
settings: Homo sapiens, colon carcinoma
From the text: The compounds were profiled on an ONCOLINES™ Profiler (Netherlands Translational Research Center) assayed with 66 cancer cell lines to determine if they were capable of inhibiting the proliferation of these cancer cells. To further evaluate potency of the compounds, they were compared with the USP9X inhibitor WP 1130 by screening both the compounds and WP1130 on a 66-cancer cell line panel ONCOLINES™ Profiler.
observable: IC50
The reply should consist of the numeric value with the unit placed after it.

// query Please report the measured IC50 for `CN1CCOc2ccc(cc2)C(=O)NCc2ccc(F)c(c2)C(=O)N[C@@H](CC(C)(C)C)C(=O)Nc2ccc(cc2)CCN(C)C(=O)CC(C)(C)CC1=O`
// result 880 nM

----------
Each entry below lists one item and its recorded β value.
assayed.system: USP9X (Homo sapiens (Human))
test.method.notes: Steady-state enzyme inhibition kinetics of USP9X
Assay type: biochemical
Answer with the value's number alone.

CN1CCOc2ccc(cc2)C(=O)NCc2cccc(c2)C(=O)N[C@@H](CC(C)(C)C)C(=O)Nc2ccc(cc2)CCN(C)C(=O)CC(C)(C)CC1=O [Compound 5A]    0.78
CC(C)(C)C[C@@H]1NC(=O)c2cccc(c2)CNC(=O)c2ccc(cc2)OCCNC(=O)CC(C)(C)CC(=O)N[C@H](C(=O)O)Cc2ccc(cc2)NC1=O [Compound 2A]    0.71
CN1CCOc2ccc(c(F)c2)C(=O)NCc2ccc(F)c(c2)C(=O)N[C@@H](CC(C)(C)C)C(=O)Nc2ccc(cc2)CCN(C)C(=O)CC(C)(C)CC1=O [Compound 11A]    0.88

// moving on: another record for β
// query Please report the measured β for CN1CCOc2ccc(cc2)C(=O)NCc2ccc(F)c(c2)C(=O)N[C@@H](CC(C)(C)C)C(=O)Nc2ccc(cc2)CCN(C)C(=O)CC(C)(C)CC1=O [Compound 7A]
// result 0.72
